Overview of recorded mortality at 10 µg/mL for various compounds
# Test system: Tetranychus cinnabarinus mite eggs
# experiment: Activity against mite eggs, dipping method on bean seedling leaves
# Assay type: in vivo
# study.conditions: Tetranychus cinnabarinus, 96 h, read-out: mortality of mite eggs (%), 10 mg/L; checked after 4 days
# Excerpt: The assay examples are used to illustrate the acaricidal activity against Tetranychus cinnabarinus (mortality of mite larvae and mortality of mite eggs) of the compounds having the structure represented by formula (I), and the results are shown in tables 1 to 9, where mortality of mite larvae % =(number of dead mite larvae applied/total number of mite larvae applied)×100, and mortality of mite eggs %= (number of dead mite eggs applied/total number of mite eggs applied)×100. […]
The reply should read as a number followed by its unit.

> print(dat)
                                   compound  data.value
1  Fc1cccc(F)c1C1=NC(c2ccc(COc3ccc(Cl)cc3)cc2)CO1 (centres unmarked)        100%
2  O=S(=O)(Oc1ccc(C2COC(c3c(F)cccc3F)=N2)cc1)c1ccc(F)cc1F (centres unmarked)         85%
3  Fc1cccc(F)c1C1=NC(c2ccc(COCC(F)(F)F)cc2)CO1 (centres unmarked)        100%
4  CC(=O)N1CCN(Cc2ccc(C3COC(c4c(F)cccc4F)=N3)cc2)C1=O (centres unmarked)         40%
5  C=C(C)COCc1ccc(C2COC(c3c(F)cccc3F)=N2)cc1 (centres unmarked)        100%
6  Fc1cccc(F)c1C1=NC(c2ccc(COc3ccc4ccccc4c3)cc2)CO1 (centres unmarked)         95%
7  Cc1ccc(OCc2ccc(C3COC(c4c(F)cccc4F)=N3)cc2)cc1 (centres unmarked)        100%

Next compound, mortality at 10 µg/mL to be filled in.
Query block: Please list mortality at 10 µg/mL recorded for the compound CS(=O)(=O)Oc1ccc(C2COC(c3c(F)cccc3F)=N2)cc1 (centres unmarked)
Result block: 90%

====

Overview of recorded mortality at 0.01 µg/mL for various compounds
# Test system: Tetranychus cinnabarinus mite eggs
# experiment: Activity against mite eggs, dipping method on bean seedling leaves
# Format: in vivo
# study.conditions: Tetranychus cinnabarinus, 96 h, read-out: mortality of mite eggs (%), 0.01 mg/L; checked after 4 days
The answer is to be given in %; state only the numeric part.

Examples from the recorded data:
> print(dat)
                                   compound                        assay.system  data.value
1  Fc1cccc(F)c1C1=NC(c2ccc(COc3ccc(Cl)cc3)cc2)CO1 (stereo not shown)  Tetranychus cinnabarinus mite eggs          32
2  CCOc1cc(C(C)(C)C)ccc1C1COC(c2c(F)cccc2F)=N1 (stereo not shown) [Etoxazole, reference compound]  Tetranychus cinnabarinus mite eggs          30
3  Fc1cccc(F)c1C1=NC(c2ccc(COc3ccc4ccccc4c3)cc2)CO1 (stereo not shown)  Tetranychus cinnabarinus mite eggs          50

Query block: Please list mortality at 0.01 µg/mL recorded for the compound CCOCc1ccc(C2COC(c3c(F)cccc3F)=N2)cc1 (stereo not shown)
Result block: 65

====

# Tested on: Tetranychus cinnabarinus mite eggs
# experiment: Activity against mite eggs, dipping method on bean seedling leaves
# Format: in vivo
# study.conditions: Tetranychus cinnabarinus, 96 h, read-out: mortality of mite eggs (%), 10 mg/L; checked after 4 days
Overview of recorded mortality at 10 µg/mL for various molecules

> print(dat)
                                   molecule      quantity.measured  data.value
1  Fc1cccc(F)c1C1=NC(c2ccc(COc3ccncc3)cc2)CO1 (centres unmarked)  mortality at 10 µg/mL         50%
2  O=S(=O)(Oc1ccc(C2COC(c3c(F)cccc3F)=N2)cc1)c1ccc(Br)cc1 (centres unmarked)  mortality at 10 µg/mL         90%
3  Fc1ccc(OCc2ccc(C3COC(c4c(F)cccc4F)=N3)cc2)cc1 (centres unmarked)  mortality at 10 µg/mL         96%
4  Fc1cccc(F)c1C1=NC(c2ccc(Cn3ccc4cc(Br)ccc43)cc2)CO1 (centres unmarked)  mortality at 10 µg/mL         80%
5  O=S(=O)(Oc1ccc(C2COC(c3c(F)cccc3F)=N2)cc1)c1ccc(F)c(F)c1F (centres unmarked)  mortality at 10 µg/mL         95%

Query block: Please list mortality at 10 µg/mL recorded for the molecule O=S(=O)(Oc1ccc(C2COC(c3c(F)cccc3F)=N2)cc1)c1ccc(F)cc1 (centres unmarked)
Result block: 90%

====

# System: Tetranychus cinnabarinus mite larvae
# experiment: Larvicidal activity test, dipping method on bean seedling leaves
# Type: in vivo
# study.conditions: Tetranychus cinnabarinus, 96 h, read-out: mortality of mite larvae (%), 200 mg/L; checked after 4 days
# From the text: The assay examples are used to illustrate the acaricidal activity against Tetranychus cinnabarinus (mortality of mite larvae and mortality of mite eggs) of the compounds having the structure represented by formula (I), and the results are shown in tables 1 to 9, where mortality of mite larvae % =(number of dead mite larvae applied/total number of mite larvae applied)×100, and mortality of mite eggs %= (number of dead mite eggs applied/total number of mite eggs applied)×100. […]
Overview of recorded mortality at 200 µg/mL for various compounds
The answer is to be given in %; state only the numeric part.

Examples from the recorded data:
> print(dat)
                                   compound  data.value
1  Fc1cccc(F)c1C1=NC(c2ccc(COc3ncccn3)cc2)CO1 (centres unmarked)          90
2  O=S(=O)(Oc1ccc(C2COC(c3c(F)cccc3F)=N2)cc1)c1ccc(F)cc1 (centres unmarked)         100
3  Fc1cccc(F)c1C1=NC(c2ccc(COCc3cccs3)cc2)CO1 (centres unmarked)         100
4  O=S(=O)(Oc1ccc(C2COC(c3c(F)cccc3F)=N2)cc1)c1ccc(C(F)(F)F)cc1 (centres unmarked)         100
5  Cc1cccc2ccn(Cc3ccc(C4COC(c5c(F)cccc5F)=N4)cc3)c12 (centres unmarked)         100

Query block: Please list mortality at 200 µg/mL recorded for the compound Fc1cccc(F)c1C1=NC(c2ccc(CN3CCCC3)cc2)CO1 (centres unmarked)
Result block: 70

Query block: Please list mortality at 200 µg/mL recorded for the compound Fc1cccc(F)c1C1=NC(c2ccc(COc3ccc(Br)cc3)cc2)CO1 (centres unmarked)
Result block: 100

Query block: Please list mortality at 200 µg/mL recorded for the compound Fc1ccc2ccn(Cc3ccc(C4COC(c5c(F)cccc5F)=N4)cc3)c2c1 (centres unmarked)
Result block: 100

====

# System: Tetranychus cinnabarinus mite eggs
# experiment: Activity against mite eggs, dipping method on bean seedling leaves
# Format: in vivo
# study.conditions: Tetranychus cinnabarinus, 96 h, read-out: mortality of mite eggs (%), 1 mg/L; checked after 4 days
quantity.measured: mortality at 1 µg/mL (%)
The answer is to be given in %; state only the numeric part.

Examples from the recorded data:
> print(dat)
                                   compound  data.value
1  O=C1c2ccccc2C(=O)N1Cc1ccc(C2COC(c3c(F)cccc3F)=N2)cc1 (centres unmarked) [Compound R1-10]          85
2  Fc1cccc(F)c1C1=NC(c2ccc(CN3CCc4ccccc4C3)cc2)CO1 (centres unmarked) [Compound R1-13]          60
3  CCOc1cc(C(C)(C)C)ccc1C1COC(c2c(F)cccc2F)=N1 (centres unmarked) [Etoxazole, reference compound]          70
4  Cc1ccc(OCc2ccc(C3COC(c4c(F)cccc4F)=N3)cc2)cc1 (centres unmarked) [Compound R2-22]          90
5  O=S(=O)(Oc1ccc(C2COC(c3c(F)cccc3F)=N2)cc1)c1ccc(F)c(F)c1F (centres unmarked) [Compound R3-15]          65
6  O=S(=O)(Oc1ccc(C2COC(c3c(F)cccc3F)=N2)cc1)c1cccc(F)c1 (centres unmarked) [Compound R3-12]          55

Query block: Please list mortality at 1 µg/mL recorded for the compound Fc1cccc(F)c1C1=NC(c2ccc(CN3CC=CC3)cc2)CO1 (centres unmarked) [Compound R1-6]
Result block: 50

Query block: Please list mortality at 1 µg/mL recorded for the compound O=S(=O)(Oc1ccc(C2COC(c3c(F)cccc3F)=N2)cc1)c1cccc2ccccc12 (centres unmarked) [Compound R3-20]
Result block: 30

Query block: Please list mortality at 1 µg/mL recorded for the compound O=S(=O)(Oc1ccc(C2COC(c3c(F)cccc3F)=N2)cc1)c1ccc(Br)cc1 (centres unmarked) [Compound R3-9]
Result block: 75

Query block: Please list mortality at 1 µg/mL recorded for the compound CC(C)(C)c1ccc(S(=O)(=O)Oc2ccc(C3COC(c4c(F)cccc4F)=N3)cc2)cc1 (centres unmarked) [Compound R3-17]
Result block: 90

Query block: Please list mortality at 1 µg/mL recorded for the compound Fc1cccc(F)c1C1=NC(c2ccc(CN3CCCC3)cc2)CO1 (centres unmarked) [Compound R1-1]
Result block: 30

Query block: Please list mortality at 1 µg/mL recorded for the compound O=S(=O)(Oc1ccc(C2COC(c3c(F)cccc3F)=N2)cc1)c1ccccc1F (centres unmarked) [Compound R3-11]
Result block: 50

Every entry's value here was drawn from patent US12588678B2.
